# credit: the supplement of paper PMC9170038

# Test system: MS2 coat protein
# assaySummary: apparent KD of MS2 coat protein; designed switch direction (-1 OFF switch, 1 ON switch): -1; higher = weaker reporter binding
# conditionParameters: input ligand: none
Outcome label depends on apparent KD of MS2 coat protein relative to 400 nM: at/above gives fulfilled, below gives not fulfilled.

Here's what some known entries look like.
>  <primarySequence>
GGUCAGAUGGUAGGAUAUUUAUAUCGAGUGACCCUUUCAUAACAUGAGGAUCACCCAUGUCGGUGGGAGAAGGGCCGUACGGCG [salish99_ExNG02_R04_013] (Eterna round: R96, puzzle: Exclusion NG 2)

>  <category>
not fulfilled

$$$$
>  <primarySequence>
CCUUCUCCACAGGAUAUGCUCAUCUAAUGAUGAGCAGAAGGGUGGACAUGAGGAUCACCCAUGUUUAUCAAUGG [Omei Ex6 D2] (Eterna round: R97, puzzle: Exclusion 6)

>  <category>
fulfilled

$$$$
>  <primarySequence>
AGACGAUCGUAGGAUAUCGGAAGGUCACUGGACUGAGAAGGACGAACAUGAGGAUCACCCAUGUGAUCUCUGGU [Eternabot (L2) Solution 43] (Eterna round: R97, puzzle: Exclusion 6)

>  <category>
fulfilled

$$$$
>  <primarySequence>
CAAAGACCGGCAGGAUAUUGACCCAGAACAUGAGGAUCACCCAUGUCAACAAGGUUGGACCAGGGCGAGAAGGGCCACGCCAAA [Eternabot solution 22] (Eterna round: R96, puzzle: Exclusion NG 2)

>  <category>
not fulfilled

$$$$

Please find the next sequence below.
Query :: Reported apparent KD of MS2 coat protein reaches at least 400 nM for UCAGGCGAUGUCAGGAUAUCGGCUGCCCAAUUGGCUGAGAAGGGACAUGAGGAUCACCCAUGUUAGAUCCAGCC [BmEX4 A.25] (Eterna round: R97, puzzle: Brourd's mod of Exclusion 4) ?
Result :: not fulfilled

###

Recorded apparent KD of K4 kissing-loop reporter, one value per entry.
# System: K4 kissing-loop RNA reporter
# assaySummary: apparent KD of K4 kissing-loop reporter; higher = weaker reporter binding
# conditionParameters: Eterna round: R107; input ligand: none
Field: numeric (nM). Do not append units.

Query :: For the sequence `UGAUAGGACAGAAGGAGCGGUAGUGAUGUUACCAAAAGGUUAAGGUGUCAAAAGACACCCUACCAGGUAGGUCGCUGUCCUAUCU` , give its measured apparent KD of K4 kissing-loop reporter value.
Result :: 161

Query :: For the sequence UGAUACCAGACUGAUACCAGCGAGUGAUGUUCGCUGAAAUCAGGGUCAAAGACCCUGUCUCGCCCUUGGCAGCAGUCUGGUAUCU [TheoBX 20 #SwitchBubble #StaticStem] , give its measured apparent KD of K4 kissing-loop reporter value.
Result :: 133

Query :: For the sequence GGUGACAACCAGAGGUGAUGUAUAGAAUCGCGAGGACCGGUACGGCCGCCACUCGUGAAGAGAAAGGAGUGAUGUUCCGUAAUGG [Kazoo C6] , give its measured apparent KD of K4 kissing-loop reporter value.
Result :: 282

Query :: For the sequence UAGCGCAACCUGCUUACGUAUGAGCCGGAAGGAGCGGCAGAAUUGCCAGGUAGGUCGCCGGCCCAGUGAUGUUGGGAUGGUGUGG [Usritiis] , give its measured apparent KD of K4 kissing-loop reporter value.
Result :: 252

Query :: For the sequence AUUACAUCUGAAAAGCUAGUGAUGUUAGCUCGAGGACCGGUACGGCCGCCACUCGCAUAGCGAGGCCAAGUCGCGGUUAACGGAG [theeternabot_exclusion_KL_Trp_A_4] , give its measured apparent KD of K4 kissing-loop reporter value.
Result :: 97.2

###

# Tested on: MS2 coat protein
# assaySummary: apparent KD of MS2 coat protein; designed switch direction (-1 OFF switch, 1 ON switch): 1; higher = weaker reporter binding
# conditionParameters: input ligand: microRNA oligo, concentration not stated
measuredEndpoint: apparent KD of MS2 coat protein

Examples with their reported apparent KD of MS2 coat protein follow.
>  <primarySequence>
GCUCGAAUCACAACCAACAUGAGGAUCACCCAUGUGUGUUGGUAGGAUAUCGUUUCUAAGGGAAACGAGAAGGGCCGAACGAGC [SameState NG3 #8] (Eterna round: R96, puzzle: Same State NG 3)

>  <apparent KD of MS2 coat protein>
12.4 nM

$$$$
>  <primarySequence>
GCUACAUGAGGAUCACCCAUGUGUGCGUGGGAGUGAGUGGCUUAGGAUAUCUAUGACUUGAGUUGAGAGAAGGAGGAUUGCUGU [SS-NG3-LRO12] (Eterna round: R96, puzzle: Same State NG 3)

>  <apparent KD of MS2 coat protein>
82.6 nM

$$$$
>  <primarySequence>
AGGAUGAGAACAGGAUAUUCGACAUGAGGAUCACCCAUGUGGCAAGUAGGUGACGAUGAAUGACGGAAGAAGGGUUACGAGGAG [Same State NG2] (Eterna round: R96, puzzle: Same State NG 2)

>  <apparent KD of MS2 coat protein>
197 nM

$$$$

Query :: For the sequence ACAUGAGACGGAGGAUAUCUUGUACCUACAUGUGACAUGAGGAUCACCCAUGUGGUAAGUAUGAUAGAGAAGGCCGAGAUAUGU [Equivalance 57 - Jieux - Same State NG 2] (Eterna round: R96, puzzle: Same State NG 2) , give its measured apparent KD of MS2 coat protein value.
Result :: 15 nM

###

Recorded apparent KD of K4 kissing-loop reporter, one value per entry.
# Tested on: K4 kissing-loop RNA reporter
# assaySummary: apparent KD of K4 kissing-loop reporter; higher = weaker reporter binding
# conditionParameters: Eterna round: R107; input ligand: arginine 13.2 mM
Field: numeric (nM). Do not append units.

>  <primarySequence>
AAAGUUGAUGAGUUGGGUAUGUGUUCCGAAGGAGCGAGAAUUAUCUCAGGUAGGUCGCGGAAGAUGAGUGAUGUUCAUCUAUAAA [KL-XArg-A8 #analogue]

>  <measurementTarget>
K4 kissing-loop RNA reporter

>  <outputUnit>
nM

>  <observedValue>
137

$$$$
>  <primarySequence>
UGAUACCAGACGGCCGCCACUACACCAGUCAAAGACUGGAUGUGAAAUUCGACCAGUGAUGUUGGUAGGACCGGGUCUGGUAUCU [TrypBX 8 #SwitchBubble #StaticStem]

>  <measurementTarget>
K4 kissing-loop RNA reporter;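 further: bound reporter read as fluorescence of individual clusters on recovered sequencing chips by microscopy, with normalized cluster intensities fitted with a binding model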

>  <outputUnit>
nM

>  <observedValue>
313

$$$$

Query :: For the sequence AUAAUAUGAGUGAUGUUCAUGAAACCUGAAGGAGCGGACGAAAGUCCAGGUAGGUCGCAGGACUCCUUCAACAUGGGAGAGGGAG [KL-SSArg-A8 #analogue] , give its measured apparent KD of K4 kissing-loop reporter value.
Result :: 180

###

Recorded apparent KD of MS2 coat protein, one value per entry.
# Test system: MS2 coat protein
# assaySummary: apparent KD of MS2 coat protein; higher = weaker reporter binding
# conditionParameters: Eterna round: R107; input ligand: theophylline 2 mM
Field: numeric (nM). Do not append units.

Examples with their reported apparent KD of MS2 coat protein follow.
>  <primarySequence>
UCGGAGAAGUCGGCCGCCACUGAACUCUUGUUCUACAUGAGGAUCACCCAUGUUCCUUUGUUUAACAGGACCGGGACUUAUACGA [JR_SSTryptoB_Sub009]

>  <measurementTarget>
MS2 coat protein

>  <apparent KD of MS2 coat protein (nM)>
346

$$$$
>  <primarySequence>
GGUCCCGUCGGAAGGAGCGACAUGAGGAUCACCCAUGUCUCCCGUUAUGGGAGUUCUUUAGGUCAGGUAGGUCGCCGGCGGGAGC [#1 Exclusion - Arginine B Attempt #15 (Inspired by Omei)]

>  <measurementTarget>
MS2 coat protein

>  <apparent KD of MS2 coat protein (nM)>
141

$$$$
>  <primarySequence>
CGGACAUGAGGAUCACCCAUGUCGUCGACGCGAGGACCGGUACGGCCGCCACUCGCAUGCCAAUGAGCGCAUGCGGCCUGGGUAU [Exclusion Tryp A GF5]

>  <measurementTarget>
MS2 coat protein

>  <apparent KD of MS2 coat protein (nM)>
21

$$$$
>  <primarySequence>
UGGGUAGCAUAGCUUGAUAGCUACACUGAAGGAGCGAGGAUAACCUCAGGUAGGUCGCAGACAUGAGGAUCACCCAUGUAGAUGG [Same State Arginine A GF18]

>  <measurementTarget>
MS2 coat protein

>  <apparent KD of MS2 coat protein (nM)>
231

$$$$
>  <primarySequence>
GCGUGUUAUAGUCAUCGUGAGCGUCCAUCCCGAGGACCGGUACGGCCGCCACUCGCCACAGGACAUGAGGAUCACCCAUGUUAUG [theeternabot_exclusion_MS2_Trp_A_3]

>  <measurementTarget>
MS2 coat protein

>  <apparent KD of MS2 coat protein (nM)>
13.8

$$$$

Query :: For the sequence GCCUGGGAUACGGCCGCCACUACAUGAGGAUCACCCAUGUAAUAUUUAUUAGAAGAGAGGGUAUGUAGGACCGGGUAAGGAAGGC [e-trypB-0] , give its measured apparent KD of MS2 coat protein value.
Result :: 22.5

Query :: For the sequence `UGUAUGUGAUCUGAUACCAGUCCAACUGGUAAAACCUGAGGAUCACCCGGGUAAAAUUGGGACCCUUGGCAGCAGAUCGCAUACU` , give its measured apparent KD of MS2 coat protein value.
Result :: 26
